System: purified human autoBACE-2 (Homo sapiens) | Read-out: pKi
Sequence (Q9Y5Z0 63-518 limits assumed): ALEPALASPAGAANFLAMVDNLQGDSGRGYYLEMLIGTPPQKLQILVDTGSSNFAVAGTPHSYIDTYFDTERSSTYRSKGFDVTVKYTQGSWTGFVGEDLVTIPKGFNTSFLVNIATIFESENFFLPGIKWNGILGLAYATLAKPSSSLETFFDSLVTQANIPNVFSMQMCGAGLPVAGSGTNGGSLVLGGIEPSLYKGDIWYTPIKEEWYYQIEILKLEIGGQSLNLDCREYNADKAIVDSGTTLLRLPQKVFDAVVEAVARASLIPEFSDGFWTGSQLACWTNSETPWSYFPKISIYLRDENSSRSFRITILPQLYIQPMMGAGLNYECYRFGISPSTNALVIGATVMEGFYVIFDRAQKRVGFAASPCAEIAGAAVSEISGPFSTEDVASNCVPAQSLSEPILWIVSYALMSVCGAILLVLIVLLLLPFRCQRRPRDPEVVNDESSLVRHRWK
Interpret pKi as the negative base-10 log of the concentration measured in mol/L.

[ask] What value of pKi has been reported for the following compound? CN1C(=N)N[C@@]2(c3cc(NC(=O)c4ccc(C(F)(F)F)cn4)ccc3F)COC[C@H]2S1(=O)=O [Example 6]
[reply] 7.71

[ask] Entry to check: CN1C(=N)NC2(c3ccccc3F)COCC2S1(=O)=O (stereo not drawn) [Example 6f]
[reply] 5.38

[ask] Next compound up: COc1ccc(C(=O)Nc2ccc(F)c([C@@]34COC[C@@H]3S(=O)(=O)N(C)C(=N)N4)c2)nc1 [Example 3a]
[reply] 6.32

[ask] Could you do the same for CN1C(=N)N[C@@]2(c3cc(NC(=O)c4ccc(F)cn4)ccc3F)COC[C@H]2S1(=O)=O [Example 1] , please?
[reply] 8.72

[ask] What do you get for COc1cnc(C(=O)Nc2ccc(F)c([C@]34COC[C@H]3S(=O)(=O)N(C)C(=N)N4)c2)cn1 [Example 4] ?
[reply] 7.32

[ask] // repeat for COc1cnc(C(=O)Nc2ccc(F)c([C@]34COC[C@H]3S(=O)(=O)N(C)C(=N)N4)c2)c(F)c1 [Example 6e] and report
[reply] 8.16

* * *

Target or system soluble human BACE1 catalytic domain (Homo sapiens (Human)): recorded Ki listed per item.
Response body: numeric value in µM, unit text excluded.

[ask] Fill in: Ki of CN1C(=N)N[C@@]2(c3cc(NC(=O)c4cnc(C(F)(F)F)cn4)ccc3F)COC[C@H]2S1(=O)=O is ___
[reply] 0.0284

[ask] How about this compound: COc1cnc(C(=O)Nc2ccc(F)c([C@]34COC[C@H]3S(=O)(=O)N(C)C(=N)N4)c2)c(F)c1
[reply] 0.0158

[ask] Now the compound CN1C(=N)NC2(c3ccccc3F)COCC2S1(=O)=O (stereo not drawn)
[reply] 7.85

[ask] What would you report for CN1C(=N)N[C@@]2(c3cc(NC(=O)c4ccc(Cl)cn4)ccc3F)COC[C@H]2S1(=O)=O ?
[reply] 0.00507

[ask] And then CN1C(=N)N[C@]2(c3cc(NC(=O)c4ccc(F)cn4)ccc3F)COC[C@@H]2S1(=O)=O , what is it?
[reply] 3.53

[ask] Another compound to look at: CN1C(=N)N[C@]2(c3cc(NC(=O)c4ccc(C(F)(F)F)cn4)ccc3F)COC[C@@H]2S1(=O)=O
[reply] 0.354
